# Tested on: FXR:RXRa (NR concentration 270 nM, RXRa partner concentration 90 nM)
# assay text: PBM binding z-score (relative to random genomic background probes); higher = stronger binding; sequences stand for … in GC…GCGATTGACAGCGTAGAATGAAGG
measured metric: PBM binding z-score
Reply with just the number.

Solved cases below.
>>> val("AGTCAAAGTTCCTCTAGGTAACGTAAGATATGCT")
-0.245
>>> val("TCTGCTAGCTCAACGATGGTCAGCTAATCTGCTA")
-0.518
>>> val("ATCTCCAGGTAAAGATAGTTCAGTGAATGCAAAT")
0.234
>>> val("GCAGACCGGTGAAACGCAGGTAACTCAGGGTGGC")
-0.668

stdin: Indicate its recorded PBM binding z-score; the sequence in question is TCGAGTAGGTTACTCGGGGCATTCAGCCAACATA
stdout: 0.333

stdin: Indicate its recorded PBM binding z-score; the sequence in question is CAAACTACGTCAAGGTCAAAGTCGGTTTGTGCCA
stdout: 4.66

---

# Tested on: PPARg:RXRa DBDmut IVT, anti-RXR (DBD mutation: RXRa K156A/R161A, NR concentration 270 nM, RXRa partner concentration 90 nM)
# assay text: PBM binding z-score (relative to random genomic background probes); higher = stronger binding; sequences stand for … in GC…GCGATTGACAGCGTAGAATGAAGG
Outcome label depends on PBM binding z-score relative to 0.9: at/above gives MET, below gives NOT MET.

See these solved cases before continuing.
>>> cat("GCTTGTAGATGAAGGTTAAGAAAGACTAAGCTAA")
"NOT MET"
>>> cat("GTACCAACGTGAATAGGTCGTTGATGAGTAGGCG")
"NOT MET"
>>> cat("TGAATGAGGTTATAATATCAGGGAACGTTGCAAA")
"NOT MET"
>>> cat("CAAACTAGGTCAAGGTCAACGTCGGTTTGTGCCA")
"MET"

stdin: I'd appreciate it if you could say whether ACCCGGAGGACAAAGGTCAGAGCTACGCCAGTGA has PBM binding z-score at least equal to 0.9.
stdout: NOT MET

stdin: I'd appreciate it if you could say whether ATCGAAAGGTCGTCAGGTGAGTATACAGAAAGGC has PBM binding z-score at least equal to 0.9.
stdout: NOT MET

stdin: I'd appreciate it if you could say whether TCATAGAGGTAATACAGGTGAAAGTCGGCATCTA has PBM binding z-score at least equal to 0.9.
stdout: MET

stdin: I'd appreciate it if you could say whether ATATGTAGGTTATCGGATCATTCAGTTTGCGCAT has PBM binding z-score at least equal to 0.9.
stdout: MET

stdin: I'd appreciate it if you could say whether TCATATAGGTAAAAGGTGAAAGACGGTGTGGTAA has PBM binding z-score at least equal to 0.9.
stdout: MET

---

# Tested on: LXRb homodimer (NR concentration 270 nM)
# assay text: PBM binding z-score (relative to random genomic background probes); higher = stronger binding; sequences stand for … in GC…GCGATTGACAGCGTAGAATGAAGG
measured metric: PBM binding z-score
Reply with just the number.

Solved cases below.
>>> val("TCTCGCAGGACACGAAGGTCAGAGCTTTCCAGAG")
-0.948
>>> val("ACTAGATGGTCAGCTGAGGTCACACACAATTCGG")
0.584
>>> val("TCATATAGGTAAATGGTGAAAGTCGGTGTGGTAA")
-0.047
>>> val("ATATGTAGGTGAGCTGGGGTCATTCAGACTAGGC")
0.598
>>> val("ATCTTTAGGTAACCAAGTTCAGTGAATGCCGAAC")
1.2
>>> val("CCTCAAAGTTCAACTAAGGTAACGTAAAGCACGC")
2.85
>>> val("GCAACTGGGGCATCAGCAGGTTACCATAACTTAA")
-0.444
>>> val("AGAACGACGGCAATGAGTTGATAGCACGGGTGGC")
-0.907

stdin: Indicate its recorded PBM binding z-score; the sequence in question is CGTCCATGGTCAGAGAGGTCAGTGAATGCCGAGT
stdout: -0.375

stdin: Indicate its recorded PBM binding z-score; the sequence in question is ATATGTAAGTTACATCCGGGTCATTCAGGCTATG
stdout: 0.757

stdin: Indicate its recorded PBM binding z-score; the sequence in question is TAGCCTAGGTCATTCAAGGGCCAGTATAGAAAGC
stdout: 0.527

stdin: Indicate its recorded PBM binding z-score; the sequence in question is AGAATGAGGTTATACGTAGCTCAGGGAAGAAAGT
stdout: -0.347

All values here come from the supplement of paper PMC6555819.
